Target: hRORbeta (Homo sapiens, UniProt Q92753)
Sequence (Q92753 1-470): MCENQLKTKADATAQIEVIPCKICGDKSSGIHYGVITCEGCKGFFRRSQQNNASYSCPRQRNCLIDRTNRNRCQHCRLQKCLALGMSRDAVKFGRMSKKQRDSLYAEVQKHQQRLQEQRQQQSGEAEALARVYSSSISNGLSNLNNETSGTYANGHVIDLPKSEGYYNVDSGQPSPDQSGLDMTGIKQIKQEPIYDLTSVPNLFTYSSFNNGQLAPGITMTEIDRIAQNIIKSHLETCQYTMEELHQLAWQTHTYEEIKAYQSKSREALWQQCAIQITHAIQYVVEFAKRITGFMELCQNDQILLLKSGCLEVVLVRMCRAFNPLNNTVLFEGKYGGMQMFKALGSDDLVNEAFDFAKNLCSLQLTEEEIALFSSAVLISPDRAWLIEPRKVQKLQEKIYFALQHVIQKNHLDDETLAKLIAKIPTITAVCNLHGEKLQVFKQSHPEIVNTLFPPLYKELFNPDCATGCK
pKi: −log10 of the molar value.
OUTCOME MEASURE: pKi

Query: Tell me measured pKi for COc1ccc(C(=O)N(CC(C)(C)C)c2cccc(C)n2)c(N2CCC(c3cc4ccc([C@@H](CC(=O)O)C5CC5)cc4o3)CC2)c1 please.
Result: < 4.89
